- ASSAY SYSTEM: T1, human IL-15Rα (human, UniProt Q13261 31-205, limits assumed)
- T1 construct: also called hIL-15Rα; IL-15 receptor alpha
- T1 sequence (Q13261 31-205 limits assumed): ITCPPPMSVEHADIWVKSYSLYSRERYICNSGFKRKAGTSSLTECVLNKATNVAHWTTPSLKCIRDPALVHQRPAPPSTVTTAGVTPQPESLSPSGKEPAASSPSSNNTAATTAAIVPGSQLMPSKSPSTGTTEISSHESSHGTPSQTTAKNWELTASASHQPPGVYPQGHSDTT
- ASSAY REMARKS: SPR, steady state
pKd: −log10 of the molar value.
Below is a list of entries, each paired with its recorded pKd value.
QUANTITY KIND: pKd

binder="hIL-15 V49R/K10G (ligand) NWVNVISDLGKIEDLIQSMHIDATLYTESDVHPSCKVTAMKCFLLELQRISLESGDASIHDTVENLIILANNSLSSNGNVTESGCKECEELEEKNIKEFLQSFVHIVQMFINTGGGGSGHHHHHHHHGGGLNDIFEAQKIEWHE" quantity_kind=pKd value=6.68
binder="hIL-15 V49R/S7K (ligand) NWVNVIKDLKKIEDLIQSMHIDATLYTESDVHPSCKVTAMKCFLLELQRISLESGDASIHDTVENLIILANNSLSSNGNVTESGCKECEELEEKNIKEFLQSFVHIVQMFINTGGGGSGHHHHHHHHGGGLNDIFEAQKIEWHE" quantity_kind=pKd value=6.99
binder="hIL-15 V49R/D30L (ligand) NWVNVISDLKKIEDLIQSMHIDATLYTESLVHPSCKVTAMKCFLLELQRISLESGDASIHDTVENLIILANNSLSSNGNVTESGCKECEELEEKNIKEFLQSFVHIVQMFINTGGGGSGHHHHHHHHGGGLNDIFEAQKIEWHE" quantity_kind=pKd value=6.63
binder="hIL-15 V49R/N4A (ligand) NWVAVISDLKKIEDLIQSMHIDATLYTESDVHPSCKVTAMKCFLLELQRISLESGDASIHDTVENLIILANNSLSSNGNVTESGCKECEELEEKNIKEFLQSFVHIVQMFINTGGGGSGHHHHHHHHGGGLNDIFEAQKIEWHE" quantity_kind=pKd value=7.01
